molecular target: T1, CNDP2 peptide complexed with HLA-A*02:01 on T2 cells (human); assay: flow cytometry, peptide-loaded T2 cells;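 also: binding of single-chain Fv antibody constructs, raised in XenoMouse, to peptide-pulsed T2 cells measured by flow cytometry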
T1 construct: whole, on cells; also called CNPD2
experimental.readout: Signal/background
Keep the answer to the number alone.

Field Signal/background (entry 18182-H12 (scFv, scFv in bacterial lysate, detected with anti-Flag M2) scFv: EVQLLESGGGLVQPGGSLRLSCAASGFTFSSYAMSWVRQAPGKGLEWVSTISGSGGGTYYADSVKGRFTISRDNSKNTLYLQMNSLRAEDTAVYYCATGKGVHLGFDYWGQGTLVTVSSGGGGSGGGGSGGGGSELMLTQPHSVSVAPGQTARITCGGNNIGSKSVHWYQQKPGQAPVLVVYDDNDRPSGIPERFSGSNFGNTATLIISRVEAGDEADYYCQVWDSSSDHVVFGGGTKLTVL ) reads 1

Entry 18182-B12 (scFv, scFv in bacterial lysate, detected with anti-Flag M2) scFv: EVQLLESGGGLVQPGGSLRLSCAASGFTFSSYAMSWVRQAPGKGLEWVSAISGSGGGTYYADSVKGRFTISRDNSKNTLYLQMSSLRAEDTAVYYCATGKGVHLGFDYWGQGTLVTVSSGGGGSGGGGSGGGGSELVLTQPPSVSVAPGQTARITCGGNNIGSKSVHWHQQKPGQAPVLVVYDDNDRPSGIPERFSGSNSGNTATLTISRVEAGDEADYYCQVWDYSSDHVVFGGGTKLTVL ; Signal/background = 0.8

Signal/background reported for this binder 18181-F1 (scFv, scFv in bacterial lysate, detected with anti-Flag M2) scFv: EVQLLESGGGLVKPGGSLRLSCAASGFTFSNAWMSWVRQAPGKGLEWVGRIKGNTYGGTTDYAAPVKGRFTISRDDSKNTLFLQMNSLKTEDTAVYYCTTPSYSGSYYNYFSVMDVWGQGTTVTVSSGGGGSGGGGSGGGGSELVMTQSPSSLSASVGDRVTITCRTSQSISSYLNWYQQKPGRAPKLLIFAASSLQGGVPSRFSGSGSGTDFTLTISSLQPEDFATYYCQQTYSSPFTFGPGTKLEIK : 1.1

Entry under test: 18179-G12 (scFv, scFv in bacterial lysate, detected with anti-Flag M2) scFv: EVQLLESGAEVKKPGASVKVSCKASGYTFTRNGLSWVRQAPGQGLEWMGWISGYNGDTNYAQKLQGRGTMTTDTSTSTAYMELRSLRSDDTAVYYCARGRATFDYWGQGTLVTVSSGGGGSGGGGSGGGGSELVMTQSPSSLSASVGDRVTITCRASQGISNYLAWYQQKPGKVPKLLISAASTLQSGVPSRFSGSGSGTDFTLTISSLQPEDVATYYCQKYNSAPFTFGPGTKLEIK . Its Signal/background was 0.8

Short answer for 18089-C9 (scFv, scFv in bacterial lysate, detected with anti-Flag M2) scFv: EVQLLESGPTLVKPTQTLTLTCTFSGFSFTTHKMGVDWIRQPPGKALEWLALIYWNDDKRYSPSLQSRLTITKDTSKNQVVLTMTNMDPVDTATYYCAYRRYNWNYENWFDPWGQGTLVTVSSGGGGSGGGGSGGGGSELQMTQSPSSLSASVGDRVTITCRASQFISSYLNWYQQKPGKAPKLLIYAASSLQSGVPSRFSGRGSGTDFTLTISSLQPEDFATYYCQQSYSTPFTFGPGTKVEIK : Signal/background was 1

Measured Signal/background of 18181-F3 (scFv, scFv in bacterial lysate, detected with anti-Flag M2) scFv: EVQLLESGGGLVQPGGSLRLSCAASGFTFSNAWMSWVRQAPGKGLEWVGRIKGNTYGGTTDYAAPVKGRFTISRDDSKNTLFLQMNSLKTEDTAVYYCTTPSYSGSYYNYFSVMDVWGQGTTVTVSSGGGGSGGGGSGGGGSELVMTQSPSSLSASVGDRVTITCRTSQSISSYLNWYQQKPGRAPKLLIFAASSLQGGVPSRFSGSGSGTDFTLTISSLQPEDFATYYCQQSYSSPFTFGPGTKVEIK : 1.1

Lab book: Signal/background of 18182-A4 (scFv, scFv in bacterial lysate, detected with anti-Flag M2) scFv: EVQLLESGGGVVQPGRSLRLSCAASGFTFSSYAMTWVRQAPGQGLEWVSSISGSGGGTYYAASVKGRFTISRDNSKNTLYLQMNSLRAEDTAVYYCATGKGVHLGFDYWGQGTLVTVSSGGGGSGGGGSGGGGSELVLTQPPSVSVAPGQTARITCGGNNIGSKSVHWYQQKPGQAPVLVVYDDNDRPSGIPERFSGSNFGNTATLIISRVAAGDEADYYCQVWDSSSDHVVFGGGTKLTVL noted as 0.8

binder 18081-B9 (scFv, scFv in bacterial lysate, detected with anti-Flag M2) scFv: EVQLLESGPGLVKPSETLSLTCTVSGDSISSSRYYWGWIRQPPGKGLEWIGSIYYSGSTYYNPSLKSRVTISVDTSKNQFSLKLSSVTAADTAVYYCARGIFGVITYFDYWGQGTLVTVSSGGGGSGGGGSGGGGSELVMTQSPDSLAVSLGERATINCKSSQSVLYSSNNKNYLAWYQQKPGQPPKLLIYWASTRESGVPDRFSGSGSGTDFTLTISSLQAEDVAVYYCQQFYSTPITFGQGTRLEIK , Signal/background observed: 1

// Signal/background value for 18182-G2 (scFv, scFv in bacterial lysate, detected with anti-Flag M2) scFv: EVQLLESGGGLVQPGGSLRLSCAASGFTFSSHAMSWVRQAPGKGLEWVSAISGSGGGTYNADSVKGRFTISRDNSKNTLYLQMNSLRAEDTAAYYCVTGKGVHLGFDYWGQGTLVTVSSGGGGSGGGGSGGGGSELVLTQPPSVSVAPGQTARITCGGNNIGSKSVHWYQQKPGQAPVMVVYDDNDRPSGIPERFSGSNSGNTATLTISRVEAGDEADYYCQVWDSSSDHVIFGGGTKLTVL : 1

Given item 18089-D12 (scFv, scFv in bacterial lysate, detected with anti-Flag M2) scFv: EVQLLESGGGVVQPGRSLRLSCAASGFTFSTYGMHWVRQAPGKGLEWVAVISYDGSNKYYADSVKGRFTISRDDSKNTLYLQMNSLRAEDTAVYYCARGQLLTGYWGQGTLVTVSSGGGGSGGGGSGGGGSELVMTQSPSSLSASVGDRVTITCRASQGISNYLAWYQQKPGKVPKLLIYAASTLQSGVPSRFSGSGSGTDFTLTISSLQPEDVATYYCQKYNSAPFTFGPGTKVEIK , the value recorded as its Signal/background is 1

Source: patent US20220017636A1
